Each recorded value in this set is attributed to ChEMBL document CHEMBL2010751.

EXPERIMENT: Inhibition of IL-1beta, IFN-gamma and TNF-alpha-induced apoptosis of rat INS-1E cells assessed as restoring cell viability after 48 hrs by luciferase based CellTiter-Glo assay
Assay type: functional
MEASURED_PARAMETER: EC50 (µM)
Answers are plain numbers, in µM.

Example results:
>>> recorded_measurement("COc1ccc(S(=O)(=O)N(C)C[C@@H]2Oc3c(NC(=O)Nc4cccc5ccccc45)cccc3C(=O)N(C(C)C)C[C@H]2C)cc1")
3.06
>>> recorded_measurement("C[C@@H]1CN([C@@H](C)CO)C(=O)c2cccc(NC(=O)Nc3cccc4ccccc34)c2O[C@H]1CN(C)S(=O)(=O)c1ccc2c(c1)OCCO2")
0.78
>>> recorded_measurement("COc1ccc(S(=O)(=O)N(C)C[C@@H]2Oc3c(NC(=O)Nc4cccc5ccccc45)cccc3C(=O)N([C@@H](C)CO)C[C@H]2C)cc1")
4.89

Lab note: next compound to report on.
For the compound COc1ccc(S(=O)(=O)N(C)C[C@@H]2Oc3c(NC(=O)Nc4cccc5ccccc45)cccc3C(=O)N([C@@H](C)CO)C[C@H]2C)cc1C , give its reported EC50. 3.5
